Reference source for all entries: PubChem BioAssay (NCI)

- Tested on: MDA-MB-231 breast
- assay.notes: NCI tumour cell line growth inhibition, 48 h
Think of 4 µM as a floor: if TGI stands on it or above, it is 1; beneath it, -1.

Previously resolved entries follow.
C/C=C/C=C/c1cc2cc3c(c(O)c2c(=O)[nH]1)C1(CC3)C(O)=c2c(=O)c3c(=O)cc(OC)c(=O)c=3c(=O)c2=C1O (centres undefined) ... 1
Cc1cc(NC(=O)NCc2ccc(N3C(N)=NC(N)=NC3(C)C)cc2)ccc1S(=O)(=O)F ... 1
Nc1ccc(CC[C@H]2CCC/C=C/[C@@H]3C[C@H](O)C[C@H]3[C@H](O)/C=C/C(=O)O2)cc1 ... -1
Nc1nc(Cl)c(CO)c(NCC2(CO)CCC2)n1 ... 1

Confirm if TGI reported for the molecule "Cc1nc2ccc(NCCN(C)C)c3c(=O)c4ccccc4n1c23" is 4 µM or above. 1

Exam item: decide whether the reported TGI for "CC1=NN(c2nc(N)nc(CO)n2)C(C)(C)C1" is at least 4 µM. 1

Check if TGI >= 4 µM (inclusive). Item: COc1cc(C2CC(c3ccccc3)=NN2C=O)ccc1Oc1ccnc2cc(Cl)ccc12 (centres undefined) 1

Item "CCCN1C(=O)/C(=C/c2ccc(SC(F)(F)F)cc2)SC1=Nc1ccc(OC)cc1" with TGI of 4 µM or above? 1

====

- Tested on: LXFL 529 NSCLC
- assay.notes: NCI tumour cell line growth inhibition, 48 h
quantity: TGI (µM)
Numbers only, in µM.

Go through the items and report each one's TGI.
1. COc1ccc(/C=C/C(=N\NC(=O)c2ccccc2)c2sc(Nc3ccc([N+](=O)[O-])cc3)nc2C)cc1OC
2. O=C(N/C(=C\c1ccc([N+](=O)[O-])cc1)c1nc2ccccc2s1)c1ccccc1
3. C/C=C/C=C/c1cc2cc3c(c(O)c2c(=O)[nH]1)C1(CC3)C(O)=c2c(=O)c3c(=O)cc(OC)c(=O)c=3c(=O)c2=C1O (stereo not given)

24.3
42.9
4.56

# return recorded TGI for entry COc1ccc(/C=C/C(=O)c2c(-c3ccccc3)nn(C)c(=O)c2N2CC2C)cc1 (stereo not given) 93.2

====

- Test system: OVCAR-5 ovarian
- assay.notes: NCI tumour cell line growth inhibition, 48 h; in the data active = GI50 below about 0.43 µM; inactive = the rest
Your response should consist of one outcome taken from active, inactive

Solved entries:
CN(C)CCCN1c2ccccc2Sc2ccc(C(F)(F)F)cc21 ... inactive
COc1cc2c(c(OC)c1OC)-c1cc(I)c(O)cc1[C@@H](NC(C)=O)CC2 ... active
CN1C2C=CC(=O)C1C1C(=O)N(c3ccccc3)C(=O)C12 (stereo not given) ... inactive
CN1CCCCC1CCN1c2ccccc2Sc2ccc(Br)cc21 (stereo not given) ... inactive

// return assay outcome for "CC[C@H](C)[C@H](NC(=O)[C@H]1CCCCN1C)C(=O)N(C)[C@H](CCc1nc(C(=O)N[C@@H](Cc2ccccc2)C[C@H](C)C(=O)O)cs1)C(C)C" inactive

For this compound, state the assay outcome: COc1ccc(-c2nsc3c2NC(=O)CC3c2ccsc2)cc1 (stereo not given) inactive

Which outcome was assigned to "COC(=O)c1c(C)nc(C)c2c1C(=O)C(Br)=C(NCc1ccccc1)C2=O" in this test? inactive

Could you please tell me the result logged for "CNC(=O)CCN1CCN(CC/C=C2\c3ccccc3Sc3ccc(Cl)cc32)CC1" in this assay? inactive

What was the test verdict on "Cn1cc(-c2cc(-c3cn(C)c4ccccc34)[nH]n2)c2ccccc21" ? inactive

Dear all, I need the recorded test outcome for "COc1cc2ncn(-c3cc(OCc4ccccc4C(F)(F)F)c(C(N)=O)s3)c2cc1OC" , thank you. active

====

- Test system: OVCAR-4 ovarian
- assay.notes: NCI tumour cell line growth inhibition, 48 h
Please respond with reported TGI for every item in the list.

Some entries whose results are on file:
COC(=O)Cc1cc(=O)n2c3ccccc3n(C)c2c1C#N ... > 100 µM
Nc1nc(N)c2nc(CN(C=O)c3ccc(C(=O)O)cc3)cnc2n1 ... > 100 µM
CC1[C@@]2(CCC(C)(C)O2)O[C@@H]2C=C3C4CCC5Cc6nc7c(nc6C[C@@]5(C)C4C[C@H](O)[C@@]3(C)[C@]12O)CC1CCC2C3=C[C@H]4O[C@@]5(O[C@@](C)(CO)C[C@@H]5O)C(C)[C@@]4(O)[C@]3(C)[C@@H](O)CC2[C@]1(C)C7 (some centres undefined) ... 0.81 µM

Here is the next item to consider.
Determine its reported TGI: C=CCOCC1C2CCC3(OCCO3)C21 (centres undefined) > 100 µM

====

- System: SR leukemia
- assay.notes: NCI tumour cell line growth inhibition, 48 h
I'd be grateful if you could share measured TGI for these entries.

CSc1c(C(C)=O)c(O)n(-c2ccc(C)cc2)c(=O)c1C#N ... > 100 µM

Quick request: TGI for each listed item, please.
1. CCOC(=O)[C@@]12C[C@](/C=C/OC)(O[Si](C)(C)C)[C@@]13c1cc(OC)c(OC)cc1CCN3C(=O)C2=O
2. COc1cc2c(c(OC)c1OC)C(=O)c1c(O)cc(C)c(OC)c1C2=O
3. Cn1cc(-c2cc(-c3cn(C)c4ccccc34)[nH]n2)c2ccccc21

1: > 100 µM; 2: > 100 µM; 3: 14.8 µM

# return TGI for each item in the list
1. Cc1ccc(C(=O)N/N=C(\N=Nc2ccc([N+](=O)[O-])cc2)c2ccc(N(CCC#N)CCC#N)cc2C)cc1
2. OCCCN=C1CCCCC1

1. > 100 µM
2. > 100 µM

Hi, could you look up TGI for each item in my list?
1. COc1cccc(C2CC(=O)Nc3c2c(C)nn3-c2nc3ccccc3[nH]2)c1OC (stereo unspecified)
2. Cc1nc2c(C)ccc([N+](=O)[O-])c2c(NCCCN(C)C)c1C
3. CC[C@H](C)[C@H](NC(=O)[C@H]1CCCCN1C)C(=O)N(C)[C@H](CCc1nc(C(=O)N[C@@H](Cc2ccccc2)C[C@H](C)C(=O)O)cs1)C(C)C
4. Clc1cc(N/N=C(\c2ccccc2)c2ccccn2)ncn1

1: > 40.9 µM; 2: > 100 µM; 3: > 25 µM; 4: 3.08 µM

====

- Test system: OVCAR-4 ovarian
- assay.notes: NCI tumour cell line growth inhibition, 48 h
Exercise: for every item that follows, state its recorded TGI.

CCCCNc1ncnc2c1cnn2-c1ccccc1 ... > 100 µM
O=[N+]([O-])c1cccc(/C=N/Nc2ccc3ccccc3n2)c1O ... > 39.6 µM
Fc1ccccc1CN1COc2c(cc(Cl)c3cccnc23)C1 ... 4.88 µM
CC1(C)N=C(N)N=C(N)N1c1ccc(CCCC(=O)Nc2ccc(S(=O)(=O)F)cc2)cc1 ... > 100 µM
COc1cc(C(=O)c2cnc(-c3c[nH]c4cccc(C)c34)[nH]2)cc(OC)c1OC ... > 100 µM

// input: 4 compounds below; output: TGI for each
1. C/C(=C\C(=O)Nc1ccc2n[nH]nc2c1)Nc1ccc2n[nH]nc2c1
2. CC1=NN(c2nc(N)nc(CO)n2)C(C)(C)C1
3. O=P(CN1CCOCC1)(c1ccccc1)c1ccccc1
4. OCCc1ccsc1-c1sc(-c2cc(CCO)c(-c3sc(-c4cc(CCO)c(-c5sccc5CCO)s4)cc3CCO)s2)cc1CCO

["> 100 µM", "> 100 µM", "> 100 µM", "2.52 µM"]

====

Hi there, I'd appreciate the recorded TGI for every entry that follows.
- System: SF-539 CNS
- assay.notes: NCI tumour cell line growth inhibition, 48 h
Give bare numbers, in µM.

COc1cc(N=Nc2cc(Cc3ccc(N(C)C)cc3)c(N)cc2N(C)C)c2ncccc2c1 ... 2.06

Enter TGI (test system SF-539 CNS) for "NCCCN(CCCCN(CCCN)CCCc1ccccc1)CCCc1ccccc1" 3.55

====

- Test system: ACHN renal
- assay.notes: NCI tumour cell line growth inhibition, 48 h
What TGI was measured for each of the following?

Previously resolved entries follow.
CCOC(=O)c1ccc(N(CCOS(C)(=O)=O)CCOS(C)(=O)=O)cc1 ... 63.7 µM
CCN(CC)c1ccc(/C=N/NC(=O)Cc2ccc(Nc3ccnc(C(F)(F)F)c3)cc2)c(O)c1 ... > 26.9 µM
CN1C2C=CC(=O)C1C1C(=O)N(c3ccccc3)C(=O)C12 (stereo unspecified) ... 20.9 µM

Value sought for every listed compound: TGI.
1. [O]=[Sn]([CH]1CCCCC1)[CH]1CCCCC1
2. C[N+](C)(CCNc1ccc(NCC[N+](C)(C)Cc2ccc([N+](=O)[O-])cc2)c2c1C(=O)c1c(O)ccc(O)c1C2=O)Cc1ccc([N+](=O)[O-])cc1
3. CC(=O)OCC1OC(OCCCOP(=O)(OCCC#N)OCC2OC(n3cnc4c(N)ncnc43)C(OC(=O)c3ccccc3)C2OC(=O)c2ccccc2)C(OC(C)=O)C(OC(C)=O)C1OC(C)=O (stereo unspecified)
4. COCN1C(=O)[C@@H]2CCCN2C(=O)c2ccc(N)cc21
5. COc1cc2c(oc(=O)c3c4occc4cc(OC)c23)c2cccc(O)c12
6. Fc1ccccc1CN1COc2c(cc(Cl)c3cccnc23)C1

1: 1.12 µM; 2: > 50 µM; 3: > 100 µM; 4: > 100 µM; 5: > 100 µM; 6: 10.3 µM

Kindly give each listed record's TGI.
1. CCN(CC)CCOC(COc1cc(C)cc(C)c1)COc1cc(C)cc(C)c1
2. CC[C@H](C)[C@H](NC(=O)[C@H]1CCCCN1C)C(=O)N(C)[C@H](CCc1nc(C(=O)N[C@@H](Cc2ccccc2)C[C@H](C)C(=O)O)cs1)C(C)C
3. O=P(CN1CCOCC1)(c1ccccc1)c1ccccc1
4. ClC1=NSSC1(Cl)Cl
5. Nc1nc(SCc2ccccc2Cl)c2ncn(C3OC(CO)C(O)C3O)c2n1 (stereo unspecified)
6. CCCN1C(=O)/C(=C/c2ccc(SC(F)(F)F)cc2)SC1=Nc1ccc(OC)cc1

1. 13.8 µM
2. > 25 µM
3. > 100 µM
4. 39.5 µM
5. > 100 µM
6. 11.8 µM

Below are some compounds; for each one, tell me its TGI.
1. Cc1c(Cl)ccc2c1NC(=O)C2(O)CC(=O)c1ccc(Cl)cc1 (stereo unspecified)
2. c1ccc(C(Oc2noc3ccccc23)c2ccccc2)cc1
3. CCCOC(=O)c1cc(O)c(O)c(O)c1
4. O=C1NC(N2CCCC(CO)C2)=N/C1=C\c1cccs1 (stereo unspecified)

1. > 100 µM
2. > 100 µM
3. > 100 µM
4. > 100 µM

Parameter requested: TGI. Apply to each item below.
1. CCOC(=O)Cc1c(C(=O)OCC)[n+](=O)c2cc(Cl)c(Cl)cc2n1[O-]
2. COC(=O)c1ccccc1C1CN=NC12Cc1ccc(C)cc1C2=O (stereo unspecified)

3.38 µM
> 100 µM
